Catalogue of compounds with associated fraction unbound at 4 h, 2 μM
assay: plasma protein binding, equilibrium dialysis; assay type: in vitro ADME; settings: pH 7.4, mouse plasma, read-out: Mouse PPB % (converted)
Give only the figure.

Sample records with fraction unbound at 4 h, 2 μM:
COc1ccc(-c2c(C)[nH]c3nc(N)nc(C)c23)c(OC)c1 ... 0.22
COc1cc(F)ccc1-c1c(C)[nH]c2nc(N)nc(C)c12 ... 0.18

Shift focus to the following entry.
## Task Name the recorded fraction unbound at 4 h, 2 μM for COc1cc(Cl)ccc1-c1c(C)[nH]c2nc(N)nc(C)c12 .
## Result 0.03

---

Molecular target: T. cruzi complex III (epimastigote lysates) (Trypanosoma cruzi, UniProt Q9T479)
Sequence (Q9T479 entry or part of it, one chain of several): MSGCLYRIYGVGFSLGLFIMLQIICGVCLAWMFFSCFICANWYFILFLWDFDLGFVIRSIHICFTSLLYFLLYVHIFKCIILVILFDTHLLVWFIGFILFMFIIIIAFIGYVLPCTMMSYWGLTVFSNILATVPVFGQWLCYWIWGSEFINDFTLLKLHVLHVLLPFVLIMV
Experiment: T. cruzi complex III assay
Format: biochemical
Conditions: decylubiquinol substrate
Experimental: Complex III activity within these lysates was monitored in the presence and absence of compound 3, compound 5 and related analogues from this series, using decylubiquinol as a pseudo-substrate ([43]). Measurement of complex III activity and inhibition were performed as described previously ([43]).
Catalogue of molecules with associated IC50
Just the number in nM, nothing appended.

COc1cc(F)ccc1-c1c(C)[nH]c2nc(N)nc(C)c12 ... 8

## Task Name the recorded IC50 for COc1ccc(-c2c(C)[nH]c3nc(N)nc(C)c23)c(OC)c1 .
## Result 6

## Task Also, COc1cc(Cl)ccc1-c1c(C)[nH]c2nc(N)nc(C)c12 please.
## Result 2

## Task Also, COc1cc(F)ccc1-c1c(C)n(C)c2nc(N)nc(C)c12 please.
## Result 1

Data provenance: paper PMC7615676
